Target: RSV A2 pre-F (Respiratory syncytial virus A2)
Assay: BLI
parameter-measured: Kd (pM)
# output: bare number, implied unit pM

{"columns": ["binder", "units-label", "Kd"],
 "data": [
  ["MEDI8897 (antibody, V domains shown) VH: QVQLVQSGAEVKKPGSSVMVSCQASGGLLEDYIINWVRQAPGQGPEWMGGIIPVLGTVHYGPKFQGRVTITADESTDTAYMELSSLRSEDTAMYYCATETALVVSETYLPHYFDNWGQGTLVTVSS VL: DIQMTQSPSSLSAAVGDRVTITCQASQDIVNYLNWYQQKPGKAPKLLIYVASNLETGVPSRFSGSGSGTDFSLTISSLQPEDVATYYCQQYDNLPLTFGGGTKVEIKR", "pM", 379]
]}

Request: Which value of Kd has been reported for F6-10 (antibody, V domains shown) VH: DALLLQSGGGLMQPGGSLRLSCAASEFTFNIHAMTWVRQSPGKGLEWVSGISSTGEGTYYTDSVKGRFTISRDNSKSTLYLQMNSLRAEDTATYFCARYSFRYGELRGTFDIWGQGVLVSVSS VL: DIQMTQTPSTLSASVGDRVIITCRASQSVGDSVAWFQQKPGRAPKLLIYDTTNLERGVPSRFSGSFSGTAFTLTITRLQPDDFATYYCQQYDESWTFGQGTKVEVK in the records?
Result: 994
